Target: T1, NCoA-1 (UniProt Q15788 257-385, limits assumed)
T1 construct: also called SRC-1
T1 sequence (looked up): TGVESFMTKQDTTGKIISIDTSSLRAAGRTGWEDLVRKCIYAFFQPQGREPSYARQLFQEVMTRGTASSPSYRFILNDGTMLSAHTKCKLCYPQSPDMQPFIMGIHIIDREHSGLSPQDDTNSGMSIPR
Assay: competition fluorescence polarization; displacement of FluoSTAT6 from NCoA-1
Procedure: The mixtures were shaken thoroughly. Fluorescence polarization was measured on a SPECTRAmax M5 spectrometer (Molecular device) following 5-30 min incubation at room temperature. FluoSTAT6 was excited at 490 nm and emission polarization was detected at 525 nm. 40 intensity measurements were collected for each well, 20 at horizontal position of the dynamic polarizer, 20 at parallel position. […]
Numbered stars: 1 amine (or outer) side, 2 acyl side, 3 side chain; on linkers, the order of the positions; unused ones are H or OH. Square brackets hold non-standard residues; d marks the D form. Glu(cHx) = L-glutamic acid cyclohexyl ester, O=C(CC[C@H](N[*:1])C(=O)[*:2])OC1CCCCC1; Trp(6-Cl) = N[C@@H](Cc1c[nH]c2cc(Cl)ccc12)C(=O)O; Gly(octyl) = CCCCCCCC[C@H](N)C(=O)O
Here the recorded pKi is given for each entry.
By convention, pKi is the negative base-10 log of a molar concentration.

Consider the worked cases shown below.
Binder	pKi
cyclo(FA[Trp(6-Cl)]LDWEF[dP]P) (SMILES CC(C)C[C@@H]1NC(=O)[C@H](Cc2c[nH]c3cc(Cl)ccc23)NC(=O)[C@H](C)NC(=O)[C@H](Cc2ccccc2)NC(=O)[C@@H]2CCCN2C(=O)[C@H]2CCCN2C(=O)[C@H](Cc2ccccc2)NC(=O)[C@H](CCC(=O)O)NC(=O)[C@H](Cc2c[nH]c3ccccc23)NC(=O)[C@H](CC(=O)O)NC1=O, cyclo(-P1..P8-template-)) [Ex. 14]	5.85
cyclo(FEWLDWEF[dP]P) (SMILES CC(C)C[C@@H]1NC(=O)[C@H](Cc2c[nH]c3ccccc23)NC(=O)[C@H](CCC(=O)O)NC(=O)[C@H](Cc2ccccc2)NC(=O)[C@@H]2CCCN2C(=O)[C@H]2CCCN2C(=O)[C@H](Cc2ccccc2)NC(=O)[C@H](CCC(=O)O)NC(=O)[C@H](Cc2c[nH]c3ccccc23)NC(=O)[C@H](CC(=O)O)NC1=O, cyclo(-P1..P8-template-)) [Ex. 19]	5.43
cyclo(FEWL[dA]WEF[dP]P) (SMILES CC(C)C[C@@H]1NC(=O)[C@H](Cc2c[nH]c3ccccc23)NC(=O)[C@H](CCC(=O)O)NC(=O)[C@H](Cc2ccccc2)NC(=O)[C@@H]2CCCN2C(=O)[C@H]2CCCN2C(=O)[C@H](Cc2ccccc2)NC(=O)[C@H](CCC(=O)O)NC(=O)[C@H](Cc2c[nH]c3ccccc23)NC(=O)[C@@H](C)NC1=O, cyclo(-P1..P8-template-)) [Ex. 4]	4.82
cyclo(EEWLAWEF[dP]P) (SMILES CC(C)C[C@@H]1NC(=O)[C@H](Cc2c[nH]c3ccccc23)NC(=O)[C@H](CCC(=O)O)NC(=O)[C@H](CCC(=O)O)NC(=O)[C@@H]2CCCN2C(=O)[C@H]2CCCN2C(=O)[C@H](Cc2ccccc2)NC(=O)[C@H](CCC(=O)O)NC(=O)[C@H](Cc2c[nH]c3ccccc23)NC(=O)[C@H](C)NC1=O, cyclo(-P1..P8-template-)) [Ex. 23]	4.79
cyclo(FEWYAWEF[dP]P) (SMILES C[C@@H]1NC(=O)[C@H](Cc2ccc(O)cc2)NC(=O)[C@H](Cc2c[nH]c3ccccc23)NC(=O)[C@H](CCC(=O)O)NC(=O)[C@H](Cc2ccccc2)NC(=O)[C@@H]2CCCN2C(=O)[C@H]2CCCN2C(=O)[C@H](Cc2ccccc2)NC(=O)[C@H](CCC(=O)O)NC(=O)[C@H](Cc2c[nH]c3ccccc23)NC1=O, cyclo(-P1..P8-template-)) [Ex. 11]	5.06

response.value for cyclo(FE[Trp(6-Cl)]LA[Gly(octyl)]EF[dP]P) (SMILES CCCCCCCC[C@@H]1NC(=O)[C@H](C)NC(=O)[C@H](CC(C)C)NC(=O)[C@H](Cc2c[nH]c3cc(Cl)ccc23)NC(=O)[C@H](CCC(=O)O)NC(=O)[C@H](Cc2ccccc2)NC(=O)[C@@H]2CCCN2C(=O)[C@H]2CCCN2C(=O)[C@H](Cc2ccccc2)NC(=O)[C@H](CCC(=O)O)NC1=O, cyclo(-P1..P8-template-)) [Ex. 6] (field: pKi) = 5.44

response.value for cyclo(FE[Trp(6-Cl)]LDAEF[dP]P) (SMILES CC(C)C[C@@H]1NC(=O)[C@H](Cc2c[nH]c3cc(Cl)ccc23)NC(=O)[C@H](CCC(=O)O)NC(=O)[C@H](Cc2ccccc2)NC(=O)[C@@H]2CCCN2C(=O)[C@H]2CCCN2C(=O)[C@H](Cc2ccccc2)NC(=O)[C@H](CCC(=O)O)NC(=O)[C@H](C)NC(=O)[C@H](CC(=O)O)NC1=O, cyclo(-P1..P8-template-)) [Ex. 18] (field: pKi) = 5.48

response.value for cyclo(FEWLAWYF[dP]P) (SMILES CC(C)C[C@@H]1NC(=O)[C@H](Cc2c[nH]c3ccccc23)NC(=O)[C@H](CCC(=O)O)NC(=O)[C@H](Cc2ccccc2)NC(=O)[C@@H]2CCCN2C(=O)[C@H]2CCCN2C(=O)[C@H](Cc2ccccc2)NC(=O)[C@H](Cc2ccc(O)cc2)NC(=O)[C@H](Cc2c[nH]c3ccccc23)NC(=O)[C@H](C)NC1=O, cyclo(-P1..P8-template-)) [Ex. 21] (field: pKi) = 4.71

response.value for cyclo(FEWLAWE[Glu(cHx)][dP]P) (SMILES CC(C)C[C@@H]1NC(=O)[C@H](Cc2c[nH]c3ccccc23)NC(=O)[C@H](CCC(=O)O)NC(=O)[C@H](Cc2ccccc2)NC(=O)[C@@H]2CCCN2C(=O)[C@H]2CCCN2C(=O)[C@H](CCC(=O)OC2CCCCC2)NC(=O)[C@H](CCC(=O)O)NC(=O)[C@H](Cc2c[nH]c3ccccc23)NC(=O)[C@H](C)NC1=O, cyclo(-P1..P8-template-)) [Ex. 9] (field: pKi) = 5.82

response.value for cyclo(FEALDWEF[dP]P) (SMILES CC(C)C[C@@H]1NC(=O)[C@H](C)NC(=O)[C@H](CCC(=O)O)NC(=O)[C@H](Cc2ccccc2)NC(=O)[C@@H]2CCCN2C(=O)[C@H]2CCCN2C(=O)[C@H](Cc2ccccc2)NC(=O)[C@H](CCC(=O)O)NC(=O)[C@H](Cc2c[nH]c3ccccc23)NC(=O)[C@H](CC(=O)O)NC1=O, cyclo(-P1..P8-template-)) [Ex. 17] (field: pKi) = 4.80
